assayExplanation: Clearance in rat at 0.5 mg/kg, iv and 2 mg/kg, po
Type: ADME, organism-based
details: in vivo

>  <molecularString>
C[C@](O)(c1ccc(C(=O)N(C2CC2)[C@H]2CC[C@](O)(C3CC3)CC2)cc1)C(F)(F)F

>  <unitString>
mL/min/kg

>  <clearance>
4

$$$$

###

assayExplanation: Clearance in cynomolgus monkey at 0.5 mg/kg, iv and 2 mg/kg, po
details: in vivo
experimentalReadout: clearance (mL/min/kg)

>  <molecularString>
C[C@](O)(c1ccc(C(=O)N(C2CC2)[C@H]2CC[C@](C#N)(C3CC3)CC2)cc1)C(F)(F)F

>  <unitString>
mL/min/kg

>  <readoutValue>
1.55

$$$$

###

assayExplanation: Volume of distribution at steady state in rat at 0.5 mg/kg, iv and 2 mg/kg, po
Format: ADME, organism-based
details: in vivo, read-out: Vdss

>  <molecularString>
C[C@](O)(c1ccc(C(=O)N(C2CC2)[C@H]2CC[C@](O)(C3CC3)CC2)cc1)C(F)(F)F

>  <unitString>
L/kg

>  <Vd>
2.7

$$$$

###

assayExplanation: Bioavailability in rat at 0.7 mg/kg, iv and 2 mg/kg, po
Type: ADME, organism-based
details: in vivo

>  <molecularString>
C[C@](O)(c1ccc(C(=O)N(C2CC2)[C@H]2CC[C@](C#N)(C3CC3)CC2)cc1)C(F)(F)F

>  <bioavailability>
40%

$$$$

###

Property: metabolised at 0.5 h; scope: individual compounds
assayExplanation: Metabolic stability in rat liver microsomes assessed as compound turnover after 30 mins
Format: ADME, Microsome
details: read-out: Activity

>  <molecularString>
C[C@](O)(c1ccc(C(=O)N(C2CC2)[C@H]2CC[C@](O)(C3CC3)CC2)cc1)C(F)(F)F

>  <unitString>
%

>  <relationalOperator>
=

>  <metabolised at 0.5 h>
7.4

$$$$
>  <molecularString>
C[C@](O)(c1ccc(C(=O)N(C2CC2)[C@H]2CC[C@](C#N)(c3cccnc3)CC2)cc1)C(F)(F)F

>  <unitString>
%

>  <relationalOperator>
=

>  <metabolised at 0.5 h>
35

$$$$
>  <molecularString>
C[C@](O)(c1ccc(C(=O)N(C2CC2)[C@H]2CC[C@@](C)(O)CC2)cc1)C(F)(F)F

>  <unitString>
%

>  <relationalOperator>
<

>  <metabolised at 0.5 h>
5

$$$$
>  <molecularString>
C[C@@](O)(c1ccc(C(=O)N(C2CC2)[C@H]2CC[C@@](C#N)(c3ccccn3)CC2)cc1)C(F)(F)F

>  <unitString>
%

>  <relationalOperator>
=

>  <metabolised at 0.5 h>
95

$$$$
>  <molecularString>
C[C@](O)(c1ccc(C(=O)N(C2CC2)[C@H]2CC[C@](O)(c3ccccc3)CC2)cc1)C(F)(F)F

>  <unitString>
%

>  <relationalOperator>
<

>  <metabolised at 0.5 h>
5

$$$$
>  <molecularString>
CC(C)[C@]1(O)CC[C@@H](N(C(=O)c2ccc([C@](C)(O)C(F)(F)F)cc2)C2CC2)CC1

>  <unitString>
%

>  <relationalOperator>
=

>  <metabolised at 0.5 h>
69

$$$$
>  <molecularString>
C[C@](O)(c1ccc(C(=O)N(C2CC2)[C@H]2CC[C@](C#N)(C3CC3)CC2)cc1)C(F)(F)F

>  <unitString>
%

>  <relationalOperator>
<

>  <metabolised at 0.5 h>
10

$$$$
>  <molecularString>
C[C@](O)(c1ccc(C(=O)N(C2CC2)[C@H]2CC[C@@](O)(c3ccccc3)CC2)cc1)C(F)(F)F

>  <unitString>
%

>  <relationalOperator>
>

>  <metabolised at 0.5 h>
95

$$$$
>  <molecularString>
C[C@@](O)(c1ccc(C(=O)N(C2CC2)[C@H]2CC[C@](C#N)(c3ccccn3)CC2)cc1)C(F)(F)F

>  <unitString>
%

>  <relationalOperator>
=

>  <metabolised at 0.5 h>
14

$$$$
>  <molecularString>
C[C@](O)(c1ccc(C(=O)N(C2CC2)[C@H]2CC[C@](O)(c3ccccn3)CC2)cc1)C(F)(F)F

>  <unitString>
%

>  <relationalOperator>
<

>  <metabolised at 0.5 h>
5

$$$$
>  <molecularString>
C[C@](O)(c1ccc(C(=O)N(C2CC2)[C@H]2CC[C@](O)(CC3CC3)CC2)cc1)C(F)(F)F

>  <unitString>
%

>  <relationalOperator>
=

>  <metabolised at 0.5 h>
43

$$$$
>  <molecularString>
C[C@](O)(c1ccc(C(=O)N(C2CC2)[C@H]2CC[C@](C#N)(c3ccc(C#N)cc3)CC2)cc1)C(F)(F)F

>  <unitString>
%

>  <relationalOperator>
<

>  <metabolised at 0.5 h>
5

$$$$
>  <molecularString>
C[C@](O)(c1ccc(C(=O)N(C2CC2)[C@H]2CC[C@](O)(c3cccnc3)CC2)cc1)C(F)(F)F

>  <unitString>
%

>  <relationalOperator>
<

>  <metabolised at 0.5 h>
5

$$$$
>  <molecularString>
C[C@](O)(c1ccc(C(=O)N(C2CC2)[C@H]2CC[C@](C#N)(c3ccccc3)CC2)cc1)C(F)(F)F

>  <unitString>
%

>  <relationalOperator>
=

>  <metabolised at 0.5 h>
6

$$$$
